Target: Carbonic anhydrase 2 (Homo sapiens, UniProt P00918)
Assay: Inhibition of human recombinant carbonic anhydrase 2 assessed as inhibition constant incubated for 10 mins by phenol red dye based stopped-flow CO2 hydration assay
Property: pKi; scope: individual compounds
Lab note — pKi values are minus log10 of concentrations in M.

Worked set:
> print(dat)
                              smiles.string  readout.value
1  NS(=O)(=O)c1cccc(NC(=O)c2cc(-c3cccc(Br)c3)nc3ccccc23)c1           6.81
2  NS(=O)(=O)c1ccc(NC(=O)c2cc(-c3ccccc3)nc3ccccc23)cc1           7.26
3  COc1ccc2nc(-c3ccccc3)cc(C(=O)NCCc3ccc(S(N)(=O)=O)cc3)c2c1           6.31
4  NS(=O)(=O)c1ccc(CCNC(=O)c2cc(-c3cccc(C(F)(F)F)c3)nc3ccccc23)cc1           7.04
5  NS(=O)(=O)c1cc(C(=O)CSc2nc3c(cnc4ccccc43)[nH]2)ccc1Cl          10.52

Could you share what pKi was measured for NS(=O)(=O)c1ccc(CCNC(=O)c2cc(-c3cccc(Br)c3)nc3ccccc23)cc1 , tested on Carbonic anhydrase 2 (Homo sapiens, UniProt P00918)?
8.02

Could you share what pKi was measured for NS(=O)(=O)c1ccc(CCNC(=O)c2cc(-c3ccccc3)nc3ccc(Br)cc23)cc1 , tested on Carbonic anhydrase 2 (Homo sapiens, UniProt P00918)?
6.06

Could you share what pKi was measured for COc1ccc2nc(-c3ccc(Cl)cc3Cl)cc(C(=O)NCCc3ccc(S(N)(=O)=O)cc3)c2c1 , tested on Carbonic anhydrase 2 (Homo sapiens, UniProt P00918)?
6.17

Could you share what pKi was measured for NS(=O)(=O)c1ccc(NC(=O)Cn2cc(/C=C/C(=O)c3cccc(C(F)(F)F)c3)c3ccccc32)cc1 , tested on Carbonic anhydrase 2 (Homo sapiens, UniProt P00918)?
8.64

Could you share what pKi was measured for COc1ccc2nc(-c3ccc(Cl)cc3Cl)cc(C(=O)Nc3cccc(S(N)(=O)=O)c3)c2c1 , tested on Carbonic anhydrase 2 (Homo sapiens, UniProt P00918)?
7.21

* * *

Molecular target: UniProt:O43570
Sequence (O43570 whole entry): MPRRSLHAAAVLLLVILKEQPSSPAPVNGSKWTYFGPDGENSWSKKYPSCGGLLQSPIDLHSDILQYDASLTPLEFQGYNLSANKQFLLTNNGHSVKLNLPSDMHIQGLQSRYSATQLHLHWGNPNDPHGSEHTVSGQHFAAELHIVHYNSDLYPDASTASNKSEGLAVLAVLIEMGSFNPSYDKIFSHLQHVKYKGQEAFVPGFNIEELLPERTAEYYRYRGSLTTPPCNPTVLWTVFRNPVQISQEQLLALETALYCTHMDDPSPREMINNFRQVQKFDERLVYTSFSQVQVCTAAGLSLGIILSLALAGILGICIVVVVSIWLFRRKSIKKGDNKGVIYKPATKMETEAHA
Test: Inhibition of human recombinant carbonic anhydrase 12 assessed as inhibition constant incubated for 10 mins by phenol red dye based stopped-flow CO2 hydration assay
measurement_label: Ki (nM)
// units = nM; emit number, no label

What Ki value was documented for this compound, NS(=O)(=O)c1ccc(NC(=O)c2cc(-c3ccc4c(c3)OCO4)nc3ccccc23)cc1 ?
72.1

What Ki value was documented for this compound, COc1ccc2nc(-c3ccc(Cl)cc3Cl)cc(C(=O)Nc3cccc(S(N)(=O)=O)c3)c2c1 ?
64.8

What Ki value was documented for this compound, O=C(/C=C/c1sc(N2CCOCC2)nc1-c1ccc([N+](=O)[O-])cc1)Nc1ccc(Br)cc1 ?
8.8

What Ki value was documented for this compound, NS(=O)(=O)c1ccc(CCNC(=O)c2cc(-c3ccc4c(c3)OCO4)nc3ccccc23)cc1 ?
555

What Ki value was documented for this compound, COc1ccc2nc(-c3ccc(OC)c(OC)c3)cc(C(=O)Nc3cccc(S(N)(=O)=O)c3)c2c1 ?
426

What Ki value was documented for this compound, NS(=O)(=O)c1ccc(NC(=O)c2cc(-c3cccc(Cl)c3)nc3ccccc23)cc1 ?
72.8

What Ki value was documented for this compound, COc1ccc2nc(-c3ccccc3)cc(C(=O)NCCc3ccc(S(N)(=O)=O)cc3)c2c1 ?
391

What Ki value was documented for this compound, NS(=O)(=O)c1ccc(CCNC(=O)c2cc(-c3ccccc3)nc3ccc(Br)cc23)cc1 ?
758

* * *

Property: pKi; scope: individual molecules
Target: Carbonic anhydrase 9 (Homo sapiens)
Assay: Inhibition of human recombinant carbonic anhydrase 9 assessed as inhibition constant incubated for 10 mins by phenol red dye based stopped-flow CO2 hydration assay
Lab note — pKi values are minus log10 of concentrations in M.

Worked set:
> print(dat)
                              smiles.string                       assayed.system  measurement.label  readout.value
1  COc1ccc2nc(-c3ccc(OC)c(OC)c3)cc(C(=O)NCCc3ccc(S(N)(=O)=O)cc3)c2c1  Carbonic anhydrase 9 (Homo sapiens)                pKi           7.15
2  NS(=O)(=O)c1cccc(NC(=O)c2cc(-c3cccc(C(F)(F)F)c3)nc3ccccc23)c1  Carbonic anhydrase 9 (Homo sapiens)                pKi           7.19

Could you share what pKi was measured for NS(=O)(=O)c1ccc(NC(=O)c2cc(-c3cccc(Cl)c3)nc3ccccc23)cc1 , tested on Carbonic anhydrase 9 (Homo sapiens)?
7.01

Could you share what pKi was measured for COc1ccc2nc(-c3ccccc3OC)cc(C(=O)Nc3ccc(S(N)(=O)=O)cc3)c2c1 , tested on Carbonic anhydrase 9 (Homo sapiens)?
7.43

Could you share what pKi was measured for COc1ccc2nc(-c3ccccc3)cc(C(=O)NCCc3ccc(S(N)(=O)=O)cc3)c2c1 , tested on Carbonic anhydrase 9 (Homo sapiens)?
7.12

Could you share what pKi was measured for COc1ccc(-c2cc(C(=O)Nc3ccc(S(N)(=O)=O)cc3)c3ccccc3n2)c(OC)c1 , tested on Carbonic anhydrase 9 (Homo sapiens)?
7.03

Could you share what pKi was measured for NS(=O)(=O)c1ccc(CCNC(=O)c2cc(-c3cccc(C(F)(F)F)c3)nc3ccccc23)cc1 , tested on Carbonic anhydrase 9 (Homo sapiens)?
7.13

* * *

Molecular target: Carbonic anhydrase 9 (Homo sapiens)
Assay: Inhibition of human recombinant carbonic anhydrase 9 assessed as inhibition constant incubated for 10 mins by phenol red dye based stopped-flow CO2 hydration assay
Property: pKi; scope: individual molecules
Lab note — pKi values are minus log10 of concentrations in M.

Worked set:
> print(dat)
                              smiles.string                       assayed.system  readout.value
1  NS(=O)(=O)c1ccc(CCNC(=O)c2cc(-c3ccc4c(c3)OCO4)nc3ccccc23)cc1  Carbonic anhydrase 9 (Homo sapiens)           7.64
2  COc1ccc2nc(-c3ccccc3)cc(C(=O)Nc3ccc(S(N)(=O)=O)cc3)c2c1  Carbonic anhydrase 9 (Homo sapiens)           7.45
3  Cc1ccc(-c2cc(C(=O)Nc3cccc(S(N)(=O)=O)c3)c3cc(Cl)ccc3n2)cc1  Carbonic anhydrase 9 (Homo sapiens)           6.61
4  COc1ccc2nc(-c3ccc(Cl)cc3Cl)cc(C(=O)Nc3cccc(S(N)(=O)=O)c3)c2c1  Carbonic anhydrase 9 (Homo sapiens)           7.03
5  NS(=O)(=O)c1cccc(NC(=O)c2cc(-c3cccc(Cl)c3)nc3ccc(Cl)cc23)c1  Carbonic anhydrase 9 (Homo sapiens)           6.46

What pKi value was documented for this molecule, NS(=O)(=O)c1cccc(NC(=O)c2cc(-c3ccc4c(c3)OCO4)nc3ccccc23)c1 ?
7.18

What pKi value was documented for this molecule, COc1ccc(-c2cc(C(=O)Nc3cccc(S(N)(=O)=O)c3)c3ccccc3n2)cc1OC ?
7.11

What pKi value was documented for this molecule, COc1ccc(-c2cc(C(=O)Nc3ccc(S(N)(=O)=O)cc3)c3cc(Cl)ccc3n2)cc1OC ?
6.51

What pKi value was documented for this molecule, COc1ccc2nc(-c3ccc(OC)c(OC)c3)cc(C(=O)Nc3ccc(S(N)(=O)=O)cc3)c2c1 ?
8.04

* * *

Target: Carbonic anhydrase 1 (Homo sapiens)
Sequence (P00915 whole entry): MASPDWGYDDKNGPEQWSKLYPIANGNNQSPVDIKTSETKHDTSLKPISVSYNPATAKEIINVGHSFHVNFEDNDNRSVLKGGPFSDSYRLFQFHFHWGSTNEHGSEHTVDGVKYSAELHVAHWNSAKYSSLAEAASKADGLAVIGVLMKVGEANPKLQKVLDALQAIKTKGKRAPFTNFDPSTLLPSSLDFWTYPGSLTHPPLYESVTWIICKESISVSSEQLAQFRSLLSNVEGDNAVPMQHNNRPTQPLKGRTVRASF
Assay: Inhibition of human recombinant carbonic anhydrase 1 assessed as inhibition constant incubated for 10 mins by phenol red dye based stopped-flow CO2 hydration assay
measurement_label: pKi
Lab note — pKi values are minus log10 of concentrations in M.

Worked set:
> print(dat)
                              smiles.string  measurement.label  readout.value
1  NS(=O)(=O)c1ccc(CCNC(=O)c2cc(-c3ccccc3)nc3ccc(Br)cc23)cc1                pKi           5.20
2  NS(=O)(=O)c1cccc(NC(=O)c2cc(-c3cccc(Cl)c3)nc3ccc(Cl)cc23)c1                pKi           6.07
3  COc1ccc2nc(-c3ccc(Cl)cc3Cl)cc(C(=O)NCCc3ccc(S(N)(=O)=O)cc3)c2c1                pKi           5.20
4  COc1ccc2nc(-c3ccccc3C)cc(C(=O)Nc3ccc(S(N)(=O)=O)cc3)c2c1                pKi           6.26

What pKi value was documented for this compound, COc1ccc2nc(-c3ccc(OC)c(OC)c3)cc(C(=O)Nc3cccc(S(N)(=O)=O)c3)c2c1 ?
6.18

* * *

Molecular target: Carbonic anhydrase 1 (Homo sapiens)
Experiment: Inhibition of human recombinant carbonic anhydrase 1 assessed as inhibition constant incubated for 10 mins by phenol red dye based stopped-flow CO2 hydration assay
Lab note: anything with Ki below 900 nM is marked True; values at 900 nM or higher are marked False.

Consider the worked cases shown below.
> print(dat)
                              smiles.string  assigned.label
1  COc1ccc2nc(-c3ccc(OC)c(OC)c3)cc(C(=O)NCCc3ccc(S(N)(=O)=O)cc3)c2c1           False
2  COc1ccc2nc(-c3ccccc3)cc(C(=O)NCCc3ccc(S(N)(=O)=O)cc3)c2c1           False
3  NS(=O)(=O)c1ccc(CCNC(=O)c2cc(-c3cccc(Br)c3)nc3ccccc23)cc1           False
4  NS(=O)(=O)c1cccc(NC(=O)c2cc(-c3ccccc3)nc3ccc(Cl)cc23)c1           False
5  NS(=O)(=O)c1ccc(CCNC(=O)c2cc(-c3cccc(C(F)(F)F)c3)nc3ccccc23)cc1           False

For this molecule, is Ki lower than 900 nM? Cc1ccc(-c2cc(C(=O)Nc3cccc(S(N)(=O)=O)c3)c3cc(Cl)ccc3n2)cc1
False

For this molecule, is Ki lower than 900 nM? COc1ccc(-c2cc(C(=O)Nc3cccc(S(N)(=O)=O)c3)c3cc(Cl)ccc3n2)cc1OC
True

For this molecule, is Ki lower than 900 nM? NS(=O)(=O)c1cc(C(=O)CSc2nc3c(cnc4ccccc43)[nH]2)ccc1Cl
True
